- Test system: NCI-H460 lung
- PROCEDURE_TEXT: NCI tumour cell line growth inhibition, 48 h
TGI listing for selected compounds.

Notebook entry, NCI-H460 lung assay: TGI of `CN1NC2(CCCCC2)ON=C1c1ccccc1` = ? > 100 µM

Please do the same for `N#Cc1cnc2cc(OC[C@@H](O)CO)c(NC(=O)CC3CSSC3)cc2c1Nc1ccc(OCc2cccc(F)c2)c(Cl)c1` as well. 0.261 µM

Please do the same for `COC(=O)c1c2c(c(C)[n+]([O-])c1C)C(=O)C=C(NCc1ccc(F)c(F)c1)C2=O` as well. 1.79 µM

Please do the same for `OCCSCc1ccccc1` as well. > 100 µM

FYI, the data here is from PubChem BioAssay (NCI).
